Each item that follows carries a reported aptazyme ON/OFF ratio.
B1: Pistol ribozyme (parent)
chain: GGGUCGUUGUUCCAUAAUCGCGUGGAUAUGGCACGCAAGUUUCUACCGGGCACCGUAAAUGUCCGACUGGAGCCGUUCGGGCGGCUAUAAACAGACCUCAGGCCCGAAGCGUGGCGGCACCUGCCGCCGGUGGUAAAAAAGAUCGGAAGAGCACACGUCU

Variants of: B1
Assay: aptazyme ON/OFF ratio, guanine; higher = stronger switching; co-transcriptional cleavage with and without guanine
MEASURED ENDPOINT: aptazyme ON/OFF ratio

INSERT INTO results (mutant_code, measured_endpoint, test_value) VALUES
  ('G9A U10G U11A', 'aptazyme ON/OFF ratio', 1.06),
  ('U7A U8C U10A U11A C13G', 'aptazyme ON/OFF ratio', 1.29),
  ('U7A G9A U10C C12A C13U', 'aptazyme ON/OFF ratio', 1.21),
  ('U7G U8A C13A', 'aptazyme ON/OFF ratio', 1.35),
  ('U7A U8C G9U U10G U11A C13A', 'aptazyme ON/OFF ratio', 1.04),
  ('U7A U8A G9A U10G U11C C12G C13A', 'aptazyme ON/OFF ratio', 1.24),
  ('U8A U10G C12G C13A', 'aptazyme ON/OFF ratio', 1.37),
  ('U7G U8C G9C U10C C12U C13G', 'aptazyme ON/OFF ratio', 1.13);
